PROTOCOL_SUMMARY: In vivo pharmacokinetic experiment, oral administration
Design: species or system Sprague Dawley rats
CONDITION_LABEL: oral administration (3 mg/kg), SD rats
Param threshold (60%) applies to F; output Criterion met when value >= threshold, Criterion not met when value < threshold.

Exam item: decide whether the reported F for CC(C)Cc1ccc(-c2nc(-c3ccc(CN4CC(C(=O)O)C4)cc3)no2)cc1 [Compound 1, reference compound] is at least 60%. Criterion met

Likewise for `CC(C)Cc1ccc(-c2nc(-c3ccc(CN4CC(C(=O)O)C4)c(Cl)c3)no2)cc1` ? Criterion met

Likewise for `CC(C)Cc1ccc(-c2nc(-c3ccc(CN4CC(C(=O)O)C4)c(Br)c3)no2)cc1` ? Criterion not met

Likewise for `CC(C)Cc1ccc(-c2nc(-c3ccc(CN4CC(C(=O)O)C4)c(F)c3)no2)cc1` ? Criterion met

Likewise for `Cc1cc(-c2noc(-c3ccc(CC(C)C)cc3)n2)ccc1CN1CC(C(=O)O)C1` ? Criterion met
